# PROTOCOL: Rat pharmacokinetics
# ASSAY SETUP: in vivo, iv, i.v. 2 mg/kg, mean ±SD
READOUT NAME: clearance (mL/min/kg)
Numeric answer only, unit mL/min/kg assumed.

query: Hello, please tell me recorded clearance for this one: CC(C)Oc1ccc(-c2nsc(Nc3ncccc3N(C)C)n2)nc1 [Compound 31]
result: 8.22

----------
# PROTOCOL: Mouse pharmacokinetics
# Assay type: in vivo
# ASSAY SETUP: male CD-1 mouse, PO 30 mg/kg suspension
READOUT NAME: Tmax (h)
Report as a plain number; the unit h is understood.

Recorded Tmax, per entry:
query: Give the reported Tmax for this compound. "COc1ccc(Nc2nc(-c3ccccn3)cs2)nc1"
result: 0.5

query: Supply reported Tmax belonging to this compound: "CC(C)c1ccnc(-c2nsc(Nc3cc(C(F)(F)F)ccn3)n2)c1"
result: 1.8

query: Give reported Tmax value for "COc1ccc(Nc2nc(-c3ccccn3)ns2)nc1"
result: 1.3

We now examine a further compound.
query: Consider the compound "CC(C)Oc1ccc(-c2nsc(Nc3ncccc3C(C)C)n2)nc1" . State its measured Tmax.
result: 2.4
